# Tested on: Shigella dysenteriae JS11910
# measurementDescription: Antibacterial MIC, standard serial dilution
# Assay type: cell-based
# condition: nutrient agar, 37° C., 17 hours, as free base
Listed below: MIC values for each entry.
Field: numeric (µg/mL). Do not append units.

CNCC1CCC(N)C(OC2C(N)CCC(N(C)C(=O)CNC=N)C2O)O1.O.O.O.O.O=S(=O)(O)O.O=S(=O)(O)O (centres unmarked)
1.56
CNC[C@@H]1CC[C@@H](N)[C@@H](O[C@H]2[C@H](O)[C@H](N(C)C(=O)CN)[C@@H](OC)C[C@H]2N)O1
3.13
CNCC1CCC(N)C(OC2C(N)CC(O)C(N(C)C(=O)CN)C2O)O1 (centres unmarked)
3.13
CNCC1CCC(N)C(OC2C(N)CC(O)C(N(C)C(=O)CNC=N)C2O)O1 (centres unmarked)
1.56

Proceeding to the next molecule to report its MIC.
Item CNCC1CCC(N)C(OC2C(N)CCC(N(C)C(=O)CN)C2O)O1 (centres unmarked) : provide MIC
1.56

These data points were gathered from patent US4479943A.
